Source of measurements: patent US20120021972A1

Parameter cAMP release, % activity, 10 µM: see the listing below.
# SYSTEM_UNDER_TEST: human GLP-1 receptor (human, UniProt P43220 24-463)
# Sequence (P43220 24-463): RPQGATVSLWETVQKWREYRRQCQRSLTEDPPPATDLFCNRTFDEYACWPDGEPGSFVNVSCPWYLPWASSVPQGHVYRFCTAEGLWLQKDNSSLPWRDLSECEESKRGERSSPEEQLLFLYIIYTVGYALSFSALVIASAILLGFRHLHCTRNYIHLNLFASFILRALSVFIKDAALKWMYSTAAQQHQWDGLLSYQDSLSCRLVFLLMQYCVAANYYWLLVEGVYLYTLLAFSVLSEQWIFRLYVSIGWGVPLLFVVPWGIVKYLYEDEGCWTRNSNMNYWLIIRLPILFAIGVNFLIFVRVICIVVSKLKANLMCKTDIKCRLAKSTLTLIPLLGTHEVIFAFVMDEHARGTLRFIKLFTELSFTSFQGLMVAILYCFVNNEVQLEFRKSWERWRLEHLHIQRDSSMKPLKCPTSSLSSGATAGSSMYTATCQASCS
# RUN_DESCRIPTION: cell-based or functional assay
Starred links: 1 amine or outer side, 2 acyl side, 3 side chain; linkers in the order of their positions; H or OH if unused. Non-standard residues stand in square brackets, D forms with d. No end group written: not given here. *: point of attachment. AMCB = 2-amino-5-(4-chloro-2-methylphenyl)pentanoic acid, Cc1cc(Cl)ccc1CCC[C@H](N[*:1])C(=O)[*:2]; Bip(2'-Et-4'-OMe) = CCc1cc(OC)ccc1-c1ccc(C[C@H](N)C(=O)O)cc1; Leu(5,5,5,5',5',5'-F6) = N[C@@H](CC(C(F)(F)F)C(F)(F)F)C(=O)O; Nva(5-(3,5-Me2Ph)) = Cc1cc(C)cc(CCC[C@H](N)C(=O)O)c1; 2Cl‑APPA = 2-amino-5-(2-chlorophenyl)pentanoic acid; 2F‑APPA = 2-amino-5-(2-fluorophenyl)pentanoic acid; αMePhe(2-F) = C[C@](N)(Cc1ccccc1F)C(=O)O; Phe(2-F) = N[C@@H](Cc1ccccc1F)C(=O)O; hhPhe = N[C@@H](CCCc1ccccc1)C(=O)O; aThr = C[C@H](O)[C@H](N)C(=O)O; CNB = not defined here; Aib = CC(C)(N)C(=O)O; Moc = COC(=O)*
Your answer is read as %, so omit the unit and give the number.

Worked cases, cAMP release, % activity, 10 µM given:
Moc-H[Aib]QGT[αMePhe(2-F)]TSD[Bip(2'-Et-4'-OMe)][2F‑APPA] (also: reduced (CH2) bonds between 9-10 and 10-11) [Seq. ID. No. 196: CH3OCO-H-Aib-QGT-(α-Me-2F-Phe)-TSD-(CH2)-BiP(OMe)-(CH2)-(2F-APPA)]	99
HSQGTFTSD[Bip(2'-Et-4'-OMe)][2Cl‑APPA] [Seq. ID. No. 50: HSQGTFTSD-Bip(OMe)-(2Cl-APPA)]	99
HSQGTFTSD[Bip(2'-Et-4'-OMe)][2F‑APPA] [Seq. ID. No. 45: HSQGTFTSD-Bip(OMe)-(2F-APPA)]	99
HAQGTFTSD[Bip(2'-Et-4'-OMe)][AMCB] [Seq. ID. No. 16: HAQGTFTSD-Bip(OMe)-(AMCB)]	99
H[Aib]QGT[Phe(2-F)]TSD[Bip(2'-Et-4'-OMe)][Nva(5-(3,5-Me2Ph))] [Seq. ID. No. 42: H-Aib-QGT-(2F-Phe)-TSD-Bip(OMe)-(ADMP)]	99
Ac-H[Aib]QG[aThr][αMePhe(2-F)][aThr]SD[Bip(2'-Et-4'-OMe)][hhPhe] [Seq. ID. No. 101: CH3CO-H-Aib-QG-T(allo)-(α-Me-2F-Phe)-T(allo)-SD-Bip(OMe)-(APPA)]	98

Lab note: measured cAMP release, % activity, 10 µM of Moc-H[Aib]QGT[αMePhe(2-F)]TSD[Bip(2'-Et-4'-OMe)][hhPhe] (also: reduced (CH2) bonds between 9-10 and 10-11) [Seq. ID. No. 194: CH3OCO-H-Aib-QGT-(α-Me-2F-Phe)-TSD-(CH2)-Bip(OMe)-(CH2)-(APPA)] was 97

Lab note: measured cAMP release, % activity, 10 µM of H[Aib][Leu(5,5,5,5',5',5'-F6)]GT[αMePhe(2-F)]TSD[Bip(2'-Et-4'-OMe)][AMCB] [Seq. ID. No. 237: H-Aib-(Hfl)-GT-(α-Me-2F-Phe)-TSD-Bip(OMe)-(AMCB)] was 99

Lab note: measured cAMP release, % activity, 10 µM of H[Aib]QG[aThr][αMePhe(2-F)][aThr]SD[Bip(2'-Et-4'-OMe)][2F‑APPA] (also: reduced (CH2) bonds Z9-Z10 and Z10-Z11) [Seq. ID. No. 203: H-Aib-QG-T(allo)-(α-Me-2F-Phe)-T(allo)-SD-(CH2)-Bip(OMe)-(CH2)-(2F-APPA)] was 99

Lab note: measured cAMP release, % activity, 10 µM of H[Aib][CNB]G[aThr][αMePhe(2-F)]TSD[Bip(2'-Et-4'-OMe)][hhPhe] (reading uncertain) [Seq. ID. No. 110: H-Aib-(CNB)-G-T(allo)-(α-Me-2F-Phe)-TSD-Bip(OMe)-(APPA)] was 97
